# target_of_assay: T1, SARS-COV-2 RBD (SARS-COV-2, UniProt P0DTC2 319-539)
# T1 construct: also called WT RBD
# measurement_description: ELISA, RBD coated on plate
# reported EC50; entries follow
The reply should contain only the number, in ng/mL.

binder	EC50 [ng/mL]
C1047 (antibody, V domains shown) VH: EVQLVQSGAEVKKPGESLKISCKGSGYSFISYWIVWVRQMPGKGLEWIGIIYPGDSDTIYSPSFQGQVTLSADKSISTAYLQWSSLKASDTAIYYCAKMVTSGTSYYETRGYASSGPFDNWGQGTLVTVSS VL: DIQLTQSPSSLSASVGDRVTITCRASQGISSALAWYQQKPGKAPKLLIYDASSLESGVPSRFSGSGSGTDFTLTISSLQPEDFATYYCQQSDNFGPGTKVDI	2.46
C1030 (antibody, V domains shown) VH: EVQLVESGGGLVQPGGSLRLSCEASGVIVSSNYMNWVRQAPGKGPEWVSVLYAGGSTFYADSVKGRFTISRDDSKNTLFLQMNNLRAEDTAVYFCARDLIAFGMDVWGQGTTVTVSS VL: DIQLTQSPSFLSASVGDRVTITCRASQGINSDLAWYQQKPGKAPKLLIYGASTLQSGVPSRFSGSGSGTEFSLTVSSLQPEDFATYYCQQLNSYRRFGGGTKVEIK	2.78
C926 (antibody, V domains shown) VH: QVQLVESGGGVVQPGRSLRLSCAASGFGLITYSMHWVRQAPGKGLEWVGLISFDGNTTYYADSVRGRFTISRDNLANILYLQMNSLRPDDTALYYCARDKRGVIRGLLNFWGQGSLVTVSS VL: DIVMTQSPDSLAVSLGERATINCKSSQSLLPSSNSNNYLAWYQQKSGQPPNLLIYWASTRESGVPDRFSGSGSETDFSLTISNLQAEDVAVYYCQQYYNTPHTFGGGTKVEI	4.72

QUERY: Could you share which EC50 value was measured for C1046 (antibody, V domains shown) VH: EVQLVQSGAEVKKPGESLKISCKGSGYSFTSYWIGWVRQMPGKGLEWMGIIYPGDSDTRYSPSFQGQVTISADKSISTAYLQWSSLKASDTAMYYCARMVTSGTYYYDNSGYSSSGPFDYWGQGTLVTVSS VL: DIQLTQSPSSLSASVGDRVTITCRASQGISSALAWYQQKPGKAPKLLIYDASSLESGVPSRFSGSGSGTDFTLTISSLQPEDFATYYCQQFNNFGPGTKVDIK ?
RESULT: 3.8
